test system: ATP; assay: switch fluorescence ratio, 500 uM ATP over buffer (Cy3 cluster intensity, sum of 5 cycles each) (fold (ratio)); higher = stronger signal-on switching upon ATP binding; sequences stand for … in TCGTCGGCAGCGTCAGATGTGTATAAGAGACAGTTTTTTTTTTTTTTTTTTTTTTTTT…TC; conditions: aptamer strand: ATP DNA aptamer (quencher-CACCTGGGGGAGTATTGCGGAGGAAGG + anchor), 100 nM annealed; ATP concentration: 500 uM;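 further: ATP exposure 15 min at 22 °C before imaging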
switch fluorescence ratio below 1 gives Condition not met; switch fluorescence ratio at or above it gives Condition met.

CCAATTTGGG    Condition not met

Query: switch fluorescence ratio >= 1 for GAAAAGGTCA ?
Response: Condition met

Query: Identify whether the reported switch fluorescence ratio of the following sequence is 1 or greater: CCTATATACG
Response: Condition met

Query: Dear colleague, could you confirm whether ATATGCAGGA has switch fluorescence ratio at or above 1?
Response: Condition not met

Query: Would you say CAGAGCTTTT shows switch fluorescence ratio at minimum 1?
Response: Condition met

Query: Textbook exercise: given the entry AAGTACAAGG , state whether its switch fluorescence ratio is greater than or equal to 1.
Response: Condition met

Query: // inclusive: switch fluorescence ratio at least 1? input: GACGACTATT
Response: Condition met

====

For each record, write down the corresponding switch fluorescence ratio.
tested on: ATP; assay: switch fluorescence ratio, 500 uM ATP over buffer (Cy3 cluster intensity, sum of 5 cycles each) (fold (ratio)); higher = stronger signal-on switching upon ATP binding; sequences stand for … in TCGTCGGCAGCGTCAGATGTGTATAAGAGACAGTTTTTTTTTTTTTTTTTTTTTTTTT…TC; settings: aptamer strand: ATP DNA aptamer (quencher-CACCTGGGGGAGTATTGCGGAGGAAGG + anchor), 100 nM annealed; ATP concentration: 500 uM;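 further: ATP exposure 15 min at 22 °C before imaging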
Answers are plain numbers.

Worked examples follow.
CAATCTGGGA    0.978
GTTGTGCGTA    0.994
ATGGGATGGG    1
AGCCGTGATG    1.06
AGGCTCTTTG    1.01
GGGTAATTAG    1.03
TTATACGGCG    1.06
GAGTTTTGGT    1.03
TTATATTGCG    0.988
TATAGGTCAG    0.985

Working through the 8 sequences below one at a time, give switch fluorescence ratio for each.
1. TTTTTTGCGC
2. GGAGGATTGG
3. CGGGTTACGA
4. ACCTTTAAGC
5. TTTGCAAAAA
6. TGATGGGCGT
7. CTCATGTAAG
8. ATGAGGGTCC

Response:
1.19
0.958
1.02
1.11
1.06
0.98
1.01
1.1

Hey, can you go through the list below and give me switch fluorescence ratio for every item?
1. CGACCGGGGG
2. TTTTGATTGC

Response:
1: 1.11; 2: 1.03

====

tested on: ATP; assay: switch fluorescence ratio, 500 uM ATP over buffer (Cy3 cluster intensity, sum of 5 cycles each) (fold (ratio)); higher = stronger signal-on switching upon ATP binding; sequences stand for … in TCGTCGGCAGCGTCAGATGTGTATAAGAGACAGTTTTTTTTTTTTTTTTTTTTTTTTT…TC; conditions: aptamer strand: ATP DNA aptamer (quencher-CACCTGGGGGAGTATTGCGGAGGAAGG + anchor), 100 nM annealed; ATP concentration: 500 uM;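 further: ATP exposure 15 min at 22 °C before imaging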
quantity measured: switch fluorescence ratio
Give bare numbers.

TCATGGAGAT    0.965
TTTGCTAG    1.01
ACAAAGGTGT    1.29
CGAGGTTTTC    0.982
TTAGAGTTGT    0.999

I'm hoping you can list switch fluorescence ratio for every sequence here, please.
1. TTCGTTTTCG
2. GCGTTTGCGC

Response:
1. 0.991
2. 1.03

Value sought for every listed sequence: switch fluorescence ratio.
1. TTGGACCGTG
2. AAGGAGAGTG
3. CAAGGATACA

Response:
1. 0.973
2. 0.991
3. 1
